These measurements were taken from BigSolDB 2.1.

- Conditions: in methanol, 328.15 K
Readout type: solubility (mole fraction)
The answer should be written as a number, with no unit following it.

Measured solubility (mole fraction) of `Oc1ccc(C2(c3ccc(O)cc3)CCCCC2)cc1` : 0.0685

====

- Conditions: in THF, 308.15 K
Readout type: solubility (mole fraction)

// recorded solubility (mole fraction) for `Oc1ccc(C2(c3ccc(O)cc3)CCCCC2)cc1` : 0.236

====

- Conditions: in isopropanol, 293.15 K
Readout type: solubility (mole fraction)
Write no unit; give the number alone.

For reference, reported solubility (mole fraction) for `Oc1ccc(C2(c3ccc(O)cc3)CCCCC2)cc1` stands at 0.0061

====

- Conditions: in ethyl acetate, 293.15 K
Readout type: solubility (mole fraction)
The answer should be a number; do not append a unit.

For `Oc1ccc(C2(c3ccc(O)cc3)CCCCC2)cc1` the compound record lists solubility (mole fraction) as 0.0681

====

- Conditions: in 1,4-dioxane, 288.15 K
Readout type: solubility (mole fraction)

solubility (mole fraction) reported for this molecule `Oc1ccc(C2(c3ccc(O)cc3)CCCCC2)cc1` : 0.0609

====

- Conditions: in acetone, 323.15 K
Readout type: solubility (mole fraction)
I only need the number, thanks.

Recorded result, `Oc1ccc(C2(c3ccc(O)cc3)CCCCC2)cc1` , solubility (mole fraction): 0.182

====

- Conditions: in n-propanol, 288.15 K
Readout type: solubility (mole fraction)
// return just the number, without any unit appended

According to the records, this compound `Oc1ccc(C2(c3ccc(O)cc3)CCCCC2)cc1` displays solubility (mole fraction) of 0.032

====

- Conditions: in ethyl acetate, 288.15 K
Readout type: solubility (mole fraction)
Lab note: jot down the number only; don't add units.

Consider `Oc1ccc(C2(c3ccc(O)cc3)CCCCC2)cc1` . Its measured solubility (mole fraction) is 0.0571

====

- Conditions: in n-butanol, 318.15 K
Readout type: solubility (mole fraction)

The reported value for `Oc1ccc(C2(c3ccc(O)cc3)CCCCC2)cc1` in terms of solubility (mole fraction) is 0.028

====

- Conditions: in ethanol, 328.15 K
Readout type: solubility (mole fraction)
Please respond with just the number, no unit label.

Sample `Oc1ccc(C2(c3ccc(O)cc3)CCCCC2)cc1` ; solubility (mole fraction) observed: 0.0202

====

- Conditions: in isopropanol, 318.15 K
Readout type: solubility (mole fraction)
Provide a numeric answer; units are not to be included.

For this compound ( `Oc1ccc(C2(c3ccc(O)cc3)CCCCC2)cc1` ), measured solubility (mole fraction) is 0.0192

====

- Conditions: in ethyl acetate, 313.15 K
Readout type: solubility (mole fraction)

The recorded solubility (mole fraction) for `Oc1ccc(C2(c3ccc(O)cc3)CCCCC2)cc1` is 0.136

====

- Conditions: in ethyl acetate, 303.15 K
Readout type: solubility (mole fraction)
Respond numerically, and do not add a unit to the figure.

Summary for this compound, `Oc1ccc(C2(c3ccc(O)cc3)CCCCC2)cc1` : solubility (mole fraction) is 0.0951

====

- Conditions: in 1,4-dioxane, 328.15 K
Readout type: solubility (mole fraction)
Keep the answer to the number alone.

Summary for this compound, `Oc1ccc(C2(c3ccc(O)cc3)CCCCC2)cc1` : solubility (mole fraction) is 0.144

====

- Conditions: in n-propanol, 293.15 K
Readout type: solubility (mole fraction)
Returns: the value as a bare number; no unit string appended.

Summary for this molecule, `Oc1ccc(C2(c3ccc(O)cc3)CCCCC2)cc1` : solubility (mole fraction) is 0.0355

====

- Conditions: in methanol, 298.15 K
Readout type: solubility (mole fraction)
The answer should be a number; do not append a unit.

solubility (mole fraction) in this record for `Oc1ccc(C2(c3ccc(O)cc3)CCCCC2)cc1` : 0.0162

====

- Conditions: in n-propanol, 298.15 K
Readout type: solubility (mole fraction)
The answer should be a number; do not append a unit.

Briefly, solubility (mole fraction) measured for `Oc1ccc(C2(c3ccc(O)cc3)CCCCC2)cc1` : 0.0437

====

- Conditions: in 1,4-dioxane, 323.15 K
Readout type: solubility (mole fraction)
In your answer, state the number alone without any accompanying words.

Looking up `Oc1ccc(C2(c3ccc(O)cc3)CCCCC2)cc1` , I see its solubility (mole fraction) listed as 0.127

====

- Conditions: in acetone, 313.15 K
Readout type: solubility (mole fraction)
Give your answer as a number; write no unit.

solubility (mole fraction) reported for this compound `Oc1ccc(C2(c3ccc(O)cc3)CCCCC2)cc1` : 0.127

====

- Conditions: in acetone, 303.15 K
Readout type: solubility (mole fraction)
// no unit string in output, number only

So for `Oc1ccc(C2(c3ccc(O)cc3)CCCCC2)cc1` , the logged solubility (mole fraction) turned out to be 0.0931

====

- Conditions: in 1,4-dioxane, 303.15 K
Readout type: solubility (mole fraction)
// return a plain number; no unit text

Item: `Oc1ccc(C2(c3ccc(O)cc3)CCCCC2)cc1` | solubility (mole fraction): 0.0731

====

- Conditions: in n-propanol, 308.15 K
Readout type: solubility (mole fraction)
Write the value as a bare number.

Form field solubility (mole fraction), entry `Oc1ccc(C2(c3ccc(O)cc3)CCCCC2)cc1` : 0.0654

====

- Conditions: in THF, 323.15 K
Readout type: solubility (mole fraction)
No unit in the answer, only the number.

Kindly note the recorded solubility (mole fraction) for `Oc1ccc(C2(c3ccc(O)cc3)CCCCC2)cc1` , which is 0.283
